System: 485368-065-R3-J5-PDC spheroids with HUVEC/MSC, viability;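 further: spheroids exposed to agents for seven days before readout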
assay info: Anticancer human tumor 485368-065-R3-J5-PDC patient-derived pancreatic carcinoma cell line growth inhibition [RAS]
measurement parameters: curve of first compound; second compound 0.3 µM
attribute measured: IC50

[[record]]
molecule = "CC(C)n1nc(-c2ccc3oc(N)nc3c2)c2c(N)ncnc21 + CCn1c(-c2cccnc2C(C)OC)c2c3cc(ccc31)N1CCOC(CC(NC(=O)C(C(C)C)N(C)C(=O)C3(F)CCN(C(=O)C#CC(C)(C)N(C)C)CC3)C(=O)N3CCCC(N3)C(=O)OCC(C)(C)C2)C1"
attribute_measured = "IC50"
measured_value = "25.6 nM"

[[record]]
molecule = "CC(=O)OC12COC1CC(O)C1(C)C(=O)C(O)C3=C(C)C(OC(=O)C(O)C(NC(=O)OC(C)(C)C)c4ccccc4)CC(O)(C(OC(=O)c4ccccc4)C21)C3(C)C (centres undefined) + CCn1c(-c2cc(N3CCN(C)CC3)cnc2C(C)OC)c2c3cc(ccc31)-c1csc(n1)CC(NC(=O)C1CC1C)C(=O)N1CCCC(N1)C(=O)OCC(C)(C)C2"
attribute_measured = "IC50"
measured_value = "< 31.6 nM"

[[record]]
molecule = "CC(Nc1ccc2c(c1)OCCn1cc(N3C(=O)OCC3C(F)F)nc1-2)C(N)=O (centres undefined) + CCn1c(-c2cc(N3CCN(C)CC3)cnc2C(C)OC)c2c3cc(ccc31)-c1csc(n1)CC(NC(=O)C1CC1C)C(=O)N1CCCC(N1)C(=O)OCC(C)(C)C2"
attribute_measured = "IC50"
measured_value = "< 31.6 nM"

[[record]]
molecule = "Nc1ccn(C2OC(CO)C(O)C2(F)F)c(=O)n1 (centres undefined) + CCn1c(-c2cc(N3CCN(C)CC3)cnc2C(C)OC)c2c3cc(ccc31)-c1csc(n1)CC(NC(=O)C1CC1C)C(=O)N1CCCC(N1)C(=O)OCC(C)(C)C2"
attribute_measured = "IC50"
measured_value = "< 3.16 nM"

